Target: MMP-13 (Homo sapiens, UniProt P45452)
Assay: MMP-13 inhibition (thiopeptide or fluorescent peptide substrate)
Format: biochemical
Conditions: % @ 10µM per footnote a; read-out: MMP13
measured-metric: inhibition at 10 µM (%)
Quick note: give the figure in %, leave out the unit.

• CC#CCOc1ccc([S+]([O-])C(C(=O)NO)c2ccccc2OC)cc1 (stereo not drawn) = 33.6
• CC#CCOc1ccc(SC(C(=O)NO)c2ccc(Br)cc2)cc1 (stereo not drawn) = 30.5

Here is another compound to look at.
Q: For CC#CCOc1ccc(S(=O)(=O)C(C(=O)NO)C2CCNCC2)cc1 (stereo not drawn) , write its inhibition at 10 µM.
A: 69.5
